Just for reference, ChEMBL document CHEMBL1143467 is where these values come from.

biological target: 5-hydroxytryptamine receptor 1A (Homo sapiens, UniProt P08908); experiment: Affinity towards cloned human 5-hydroxytryptamine 1A receptor
Sequence (P08908 whole entry): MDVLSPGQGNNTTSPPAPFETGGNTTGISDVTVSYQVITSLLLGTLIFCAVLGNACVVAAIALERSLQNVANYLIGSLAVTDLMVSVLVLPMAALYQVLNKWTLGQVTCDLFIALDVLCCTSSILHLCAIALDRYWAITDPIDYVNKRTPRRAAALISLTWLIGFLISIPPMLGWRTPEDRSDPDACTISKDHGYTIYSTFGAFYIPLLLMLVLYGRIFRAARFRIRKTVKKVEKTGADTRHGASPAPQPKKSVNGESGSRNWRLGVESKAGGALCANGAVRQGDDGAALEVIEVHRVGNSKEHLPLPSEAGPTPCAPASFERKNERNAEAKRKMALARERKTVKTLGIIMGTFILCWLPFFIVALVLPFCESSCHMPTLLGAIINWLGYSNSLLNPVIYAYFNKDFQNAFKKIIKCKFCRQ
pKi: −log10 of the molar value.
measured_parameter: pKi

>  <molecule>
COc1ccc(NC(=O)c2ccc(-c3ccc(-c4noc(C)n4)cc3C)cc2)cc1N1CCN(C)CC1 [GR-127935]

>  <measured_parameter>
pKi

>  <observed_result>
7.15

$$$$

====

Target protein (sequence): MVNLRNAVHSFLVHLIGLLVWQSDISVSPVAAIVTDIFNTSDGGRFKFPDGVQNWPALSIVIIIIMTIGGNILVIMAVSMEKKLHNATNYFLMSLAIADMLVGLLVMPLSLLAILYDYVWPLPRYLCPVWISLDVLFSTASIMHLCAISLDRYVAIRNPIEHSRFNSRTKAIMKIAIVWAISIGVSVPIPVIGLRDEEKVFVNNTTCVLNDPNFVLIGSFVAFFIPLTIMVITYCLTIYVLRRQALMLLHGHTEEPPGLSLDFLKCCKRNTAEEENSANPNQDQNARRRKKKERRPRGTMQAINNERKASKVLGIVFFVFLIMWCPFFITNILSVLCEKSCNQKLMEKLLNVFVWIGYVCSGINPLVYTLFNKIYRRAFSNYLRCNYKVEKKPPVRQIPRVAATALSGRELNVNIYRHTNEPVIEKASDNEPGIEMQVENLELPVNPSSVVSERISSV
pKi: −log10 of the molar value.
// Not satisfied strictly below 6 in pKi; Satisfied otherwise

>  <molecule>
COc1ccc(NC(=O)N2CCN(c3ccc(Cl)cc3)CC2)cc1N1CCN(C)CC1

>  <label_class>
Satisfied

$$$$
>  <molecule>
COc1ccccc1N1CCC(C(=O)Nc2ccc(OC)c(N3CCN(C)CC3)c2)CC1

>  <label_class>
Not satisfied

$$$$
>  <molecule>
COc1ccc(NC(=O)N2CCN(c3ccc(-c4ccccc4)cc3)CC2)cc1N1CCN(C)CC1

>  <label_class>
Satisfied

$$$$
>  <molecule>
COc1ccc(NC(=O)N2CCN(c3ccc(C(F)(F)F)cc3)CC2)cc1N1CCN(C)CC1

>  <label_class>
Not satisfied

$$$$
